# tested_on: Bromodomain-containing protein 4 (Homo sapiens, UniProt O60885)
# experimental_details: Inhibition of 3F-Tyr-tagged BRD4 bromodomain-1 (unknown origin) expressed in Escherichia coli by isothermal titration calorimetry
outcome_measure: Kd (µM)
Form entry: value (µM) — number only.

Prompt: I am curious: what Kd value has been reported for CC(=O)Nc1ccc(O)cc1 ?
Response: 250

====

# tested_on: Bromodomain-containing protein 1 (Homo sapiens)
# Sequence (O95696 whole entry): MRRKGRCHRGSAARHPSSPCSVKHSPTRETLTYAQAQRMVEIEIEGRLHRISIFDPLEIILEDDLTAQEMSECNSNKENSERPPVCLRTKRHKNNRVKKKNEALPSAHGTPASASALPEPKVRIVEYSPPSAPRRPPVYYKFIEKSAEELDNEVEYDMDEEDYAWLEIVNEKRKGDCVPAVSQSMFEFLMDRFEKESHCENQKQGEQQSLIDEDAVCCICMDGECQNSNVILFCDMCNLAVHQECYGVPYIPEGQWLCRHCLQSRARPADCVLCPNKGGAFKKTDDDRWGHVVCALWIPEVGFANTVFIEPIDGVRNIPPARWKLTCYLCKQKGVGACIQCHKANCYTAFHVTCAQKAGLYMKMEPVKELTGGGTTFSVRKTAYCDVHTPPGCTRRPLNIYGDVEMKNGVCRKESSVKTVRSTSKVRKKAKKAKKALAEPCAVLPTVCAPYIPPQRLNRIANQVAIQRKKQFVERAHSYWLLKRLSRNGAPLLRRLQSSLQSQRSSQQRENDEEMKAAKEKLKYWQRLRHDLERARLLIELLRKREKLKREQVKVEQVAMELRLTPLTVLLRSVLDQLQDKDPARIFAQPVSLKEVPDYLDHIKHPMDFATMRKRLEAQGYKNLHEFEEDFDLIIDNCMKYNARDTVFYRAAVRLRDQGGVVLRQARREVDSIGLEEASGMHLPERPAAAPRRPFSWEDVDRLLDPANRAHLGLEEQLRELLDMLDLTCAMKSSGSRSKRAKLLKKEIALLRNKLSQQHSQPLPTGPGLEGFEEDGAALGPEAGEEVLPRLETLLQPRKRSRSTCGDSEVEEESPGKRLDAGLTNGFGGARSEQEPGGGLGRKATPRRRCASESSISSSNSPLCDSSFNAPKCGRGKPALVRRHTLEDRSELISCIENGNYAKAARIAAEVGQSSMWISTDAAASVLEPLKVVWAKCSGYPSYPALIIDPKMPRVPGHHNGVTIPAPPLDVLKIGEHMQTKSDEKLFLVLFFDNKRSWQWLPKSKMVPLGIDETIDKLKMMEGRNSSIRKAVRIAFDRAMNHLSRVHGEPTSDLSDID
# experimental_details: Binding affinity to BRPF2 (unknown origin) by isothermal titration calorimetry
outcome_measure: Kd (nM)
Response body: numeric value in nM, unit text excluded.

Prompt: Recorded Kd for COc1cc(C#N)ccc1S(=O)(=O)Nc1ccc2c(c1)cc(C)c(=O)n2C , please?
Response: 108
